Tested on: Staphylococcus aureus
Test: Antibacterial activity against fluoroquinolone-resistant Staphylococcus aureus 1095
Type: functional
Assay Metric: MIC

Compound | MIC
COc1ccc2nccc([C@@H](O)CC[C@@H]3CCN(C4CC(c5ccc(F)c(C#N)c5)C4)C[C@@H]3C(=O)O)c2c1 (stereo partly drawn) | > 64 µg/mL
COc1ccc2nccc([C@@H](O)CC[C@@H]3CCN(C4CC(c5cc(F)c(OC)cc5F)C4)C[C@@H]3C(=O)O)c2c1 (stereo partly drawn) | > 64 µg/mL

Next item in the queue.
// lookup MIC | system=Staphylococcus aureus | key= COc1ccc2nccc([C@@H](O)CC[C@@H]3CCN(C4CC(c5ccc(Br)cc5F)C4)C[C@@H]3C(=O)O)c2c1 (stereo partly drawn)
8 µg/mL

====

Test: Inhibition of Staphylococcus aureus DNA topoisomerase 4
Assay Metric: IC50 (µM)
Express it in µM; write the number only.

Please review the following examples before continuing.
Compound | Reading
COc1ccc2nccc([C@@H](O)CC[C@@H]3CCN(C4CC(c5cccc(Cl)c5F)C4)C[C@@H]3C(=O)O)c2c1 (some centres undefined) | 75
COc1ccc2nccc([C@@H](O)CC[C@@H]3CCN(C4CC(c5ccccc5SC)C4)C[C@@H]3C(=O)O)c2c1 (some centres undefined) | 50

Here's the next entry for you.
Recorded IC50 for COc1ccc2nccc([C@@H](O)CC[C@@H]3CCN(C4CC(c5cccc(C(F)(F)F)c5F)C4)C[C@@H]3C(=O)O)c2c1 (some centres undefined) , please?
200
